tested on: IGROV1 ovarian; experiment: NCI tumour cell line growth inhibition, 48 h
recordedMetric: TGI

molecule=C/C(CCn1[nH]c(=O)ccc1=O)=N\Nc1ccc([N+](=O)[O-])cc1[N+](=O)[O-] recordedresult="> 100 µM"
molecule=Oc1ccc(-c2cn3cc(C(F)(F)F)ccc3n2)cc1 recordedresult="> 100 µM"
molecule=CN(C)c1ccc(C(=NN)c2ccc(N(C)C)cc2)cc1 recordedresult="> 100 µM"
molecule=Cc1cc(C)nc(NS(=O)(=O)c2ccc(NC(=O)c3ccc(Cl)c4c(Nc5ccc(S(=O)(=O)N=C(N)N)cc5)c5ccccc5nc34)cc2)n1 recordedresult="> 100 µM"
molecule=CCOC(=O)NC(=S)c1ccc(O)c2ccccc12 recordedresult="49.1 µM"
molecule=COC(=O)[C@@H]1Cc2cc(O)c(O)cc2C2(CCN(C)CC2)O1 recordedresult="> 10 µM"

Task: // query TGI value for entry Cn1c2c3c(F)c(F)ccc3nc-2cc2ccccc21
Result: 15.9 µM

Task: // query TGI value for entry CCOC(=O)C1SC(=Nc2ccc(Cl)cc2C)N=C1C (stereo unspecified)
Result: 88 µM

Task: // query TGI value for entry CCN(CC)COC(=S)S
Result: > 100 µM

Task: // query TGI value for entry O=C(Nn1cnn2c(=O)c3ccccc3nc2c1=O)c1ccccc1
Result: > 100 µM

Task: // query TGI value for entry CCO[C@@H]1OC(=O)[C@@](C)(C(C)=O)[C@@H]1C
Result: > 100 µM

====

tested on: A549 NSCLC; experiment: NCI tumour cell line growth inhibition, 48 h
Reported TGI is given for each of the following compounds.

Task: // query TGI value for entry Cc1cn2c(/C=C3/C(=O)Nc4ccc(F)cc43)c(C)nc2s1
Result: > 50 µM

Task: // query TGI value for entry CC1=NN(C(=O)c2ccncc2)C(=O)C1N=Nc1ccc2ccccc2c1 (configuration not stated)
Result: > 100 µM

Task: // query TGI value for entry Cn1c(-c2ccc(N=NNc3ccc(-c4n[nH]c(=S)n4C)cc3)cc2)n[nH]c1=S
Result: > 100 µM

====

test system: NCI-H522 lung; experiment: NCI tumour cell line growth inhibition, 48 h
Reported TGI is given for each of the following compounds.

compound=CCO[C@@H]1OC(=O)[C@@](C)(C(C)=O)[C@@H]1C systemtested="NCI-H522 lung" recordedresult="> 100 µM"

Task: API: value(readout=TGI, system=NCI-H522 lung) for record CCCN1C(=O)/C(=C/c2ccc(O)cc2)SC1=Nc1ccc(OC)cc1
Result: > 100 µM

Task: API: value(readout=TGI, system=NCI-H522 lung) for record COc1ccc(CNc2cnc3cc(N)cc(N)c3n2)cc1
Result: 44.1 µM

Task: API: value(readout=TGI, system=NCI-H522 lung) for record C=C1C(=O)OC2C1C(OC(=O)/C(C)=C\C)CC1(CO1)C1C(O)C=C(C)C21O (stereo not given)
Result: 2.3 µM

Task: API: value(readout=TGI, system=NCI-H522 lung) for record CCCCCCCCCCCCCC(=O)OCC1OC(n2cc(F)c(=O)[nH]c2=O)C(N)C(OC(=O)CCCCCCCCCCCCC)C1O (stereo not given)
Result: > 100 µM

Task: API: value(readout=TGI, system=NCI-H522 lung) for record Nc1ccccc1N=Nc1c(S(=O)(=O)O)cc2cc(S(=O)(=O)O)cc(O)c2c1O
Result: > 100 µM

Task: API: value(readout=TGI, system=NCI-H522 lung) for record COc1cc(-c2ccc(NC(=O)NC3CC3)c(OC)c2)ccc1NC(=O)NC1CC1
Result: > 62.5 µM

Task: API: value(readout=TGI, system=NCI-H522 lung) for record CCN(CC)COC(=S)S
Result: > 94.7 µM

Task: API: value(readout=TGI, system=NCI-H522 lung) for record O=C(Cn1c(C(=O)c2ccccc2)nc2ccccc21)c1ccc(F)cc1
Result: > 62.9 µM

Task: API: value(readout=TGI, system=NCI-H522 lung) for record CCOC(=O)NC(=O)c1cn(CCN2CCNCC2)c(=O)[nH]c1=O
Result: > 100 µM

====

Reported TGI is given for each of the following compounds.
tested on: KM12 colon; experiment: NCI tumour cell line growth inhibition, 48 h
Express the result in µM but write the number alone.

Some solved entries appear below for comparison.
compound=O=C(Nc1ccc2c(c1)OCO2)C(=O)c1c[nH]c2cc(F)ccc12 recordedresult=13.7
compound=CCc1nc2cc(/C=C/C(=O)NO)ccc2c(=O)n1CCc1ccc(F)cc1 recordedresult=14.3
compound="CCCCCCCCCCCCCCCC(=O)OC1C(O)C(CO)OC(OC)C1NC(=O)N(CCCl)N=O (centres undefined)" recordedresult=35.1

Task: // query TGI value for entry CC(C)CCC(=O)[C@@H](C)[C@H]1[C@@H](OC2OCC(O)C(O)C2NS(C)(=O)=O)C[C@H]2[C@@H]3CC=C4C[C@@H](O)CC[C@]4(C)[C@H]3CC[C@]12C (some centres undefined)
Result: 11

====

test system: SK-MEL-2 melanoma; test: NCI tumour cell line growth inhibition, 48 h; in the data active = GI50 below about 0.43 µM; inactive = the rest
Pick one and only one: 1 for active, -1 for inactive

compound=COc1cc(/C=C\c2cc(/C=C\c3ccc(O)c(OC)c3)n(C(=O)CNc3ccc(Cl)cc3)n2)ccc1O answerlabel=-1
compound=N#Cc1c(N)nc(N2CCSCC2)c(C#N)c1-c1ccc(O)cc1 answerlabel=-1
compound=CCc1nc2cc(/C=C/C(=O)NO)ccc2c(=O)n1CCc1ccc(F)cc1 answerlabel=-1
compound=COc1cc(-c2ccc(NC(=O)NC3CC3)c(OC)c2)ccc1NC(=O)NC1CC1 answerlabel=-1
compound=CCCCCCN(C)Cc1ccc(OCCOc2ccc(CN(C)CCCCCC)cc2)cc1 answerlabel=-1

Task: Hi team, can someone confirm the assay call for CC(C)(C)NC/C(=C\c1ccccc1)C(=O)c1ccccc1 ?
Result: -1

Task: Hi team, can someone confirm the assay call for CCC[CH2][Sn]([CH2]CCC)([O]C(=O)c1cc(F)cc(F)c1)[O][Sn]([CH2]CCC)([CH2]CCC)[O]C(=O)c1cc(F)cc(F)c1 ?
Result: -1

Task: Hi team, can someone confirm the assay call for O=C(Nc1ccc2c(c1)OCO2)C(=O)c1c[nH]c2cc(F)ccc12 ?
Result: -1

Task: Hi team, can someone confirm the assay call for CO[C@@H]1[C@H]2[C@@H](C)c3ccoc3C[C@@H]2[C@@]2(C)CC[C@H](OC(=O)c3ccccc3)[C@](C)(C(=O)O)[C@]2(O)[C@@H]1OC(=O)c1ccccc1 ?
Result: -1

Task: Hi team, can someone confirm the assay call for C=C1CCC2C3(C)COC(c4ccc(Cl)cc4)OC3CCC2(C)C1/C=C/C1=CCOC1=O (stereo unspecified) ?
Result: -1

Task: Hi team, can someone confirm the assay call for CC[C@]12C=CCN3CC[C@@]4(c5ccc(OC)cc5N(C)[C@H]4[C@@](O)(C(=O)OC)[C@@H]1OC(=O)CCC(=O)N[C@H](Cc1c[nH]c4ccccc14)C(=O)OC)[C@@H]32 ?
Result: -1

Task: Hi team, can someone confirm the assay call for CC[C@@H](C)Nc1cc(C(=O)NC2CC3CCC(C2)N3c2ccc(C(=O)C3CC3)cn2)c(C)cc1C(N)=O (stereo partly specified) ?
Result: 1

====

test system: MDA-MB-435; assay: NCI tumour cell line growth inhibition, 48 h
recordedMetric: TGI

molecule=O=S(=O)(Nc1ccc2ccccc2c1)c1ccc(-c2cnc(C3CC3)o2)cc1 recordedresult="0.598 µM"
molecule=CCCCCCCCCc1c(O)c(O)c(CCCCCCCCC)c(CCCCCCCCC)c1CCCCCCCCC recordedresult="> 100 µM"
molecule=N#CCCN(CCC#N)c1ccc(C(N=Nc2ccc(Cl)cc2)=Nc2ccc(F)cc2)cc1 recordedresult="> 100 µM"
molecule="CC(CCCC1SCC2NC(=O)NC21)C(=O)O (stereo not given)" recordedresult="> 100 µM"
molecule="C=C1CC(CN2CCC(=O)NC2=O)(c2ccccc2)OC1=O (stereo not given)" recordedresult="23.6 µM"

Task: // query TGI value for entry CN(C)CCCNC(=O)c1cc(NC(=O)c2cc(NC(=O)[C@@H]3C[C@H]3C(=O)Nc3cc(C(=O)Nc4cc(C(=O)NCCCN(C)C)n(C)c4)n(C)c3)cn2C)cn1C
Result: > 100 µM

Task: // query TGI value for entry COC(=O)[C@@H]1Cc2cc(O)c(O)cc2C2(CCN(C)CC2)O1
Result: > 10 µM

Task: // query TGI value for entry O=[As](O)(O)c1ccc2nc3cc([As](=O)(O)O)ccc3nc2c1
Result: > 100 µM

Task: // query TGI value for entry O=S(=O)(OI(O)CC(F)(F)F)C(F)(F)F
Result: > 100 µM

Task: // query TGI value for entry O=C1CN(c2ccc(Cl)cc2)C(=O)CN1NCNN1CC(=O)N(c2ccc(Cl)cc2)CC1=O
Result: > 100 µM
